# procedure.details: Hygroscopicity: sorption/desorption isotherms, VTI 100 humidity microbalance
# Assay type: physicochemical
# measurement.conditions: 85% r.h., 25° C.
parameter.measured: Moisture gain (water uptake)
State the value, then name its unit.

Completed entries (count: 3):
compound: N#Cc1ccc([C@H]2CCc3cncn32)c(F)c1 [Free base]
Moisture gain (water uptake): 0.5%

compound: N#Cc1ccc([C@H]2CCc3cncn32)c(F)c1.O=[N+]([O-])O [nitrate salt]
Moisture gain (water uptake): 0.2%

compound: Cl.N#Cc1ccc([C@H]2CCc3cncn32)c(F)c1 [HCl salt, reference compound]
Moisture gain (water uptake): 3.3%

Param item = N#Cc1ccc([C@H]2CCc3cncn32)c(F)c1.O=P(O)(O)O [Phosphate salt] ; retrieve measured Moisture gain (water uptake).
0.3%

----------
# procedure.details: Hygroscopicity: sorption/desorption isotherms, VTI 100 humidity microbalance
# Format: physicochemical
# measurement.conditions: 25% r.h., 25° C.
parameter.measured: Moisture gain (water uptake) (%)
Numbers only; they are read as %.

Completed entries (count: 3):
compound: N#Cc1ccc([C@H]2CCc3cncn32)c(F)c1.O=[N+]([O-])O [nitrate salt]
Moisture gain (water uptake) (%): 0.1
--
compound: N#Cc1ccc([C@H]2CCc3cncn32)c(F)c1.O=P(O)(O)O [Phosphate salt]
Moisture gain (water uptake) (%): 0.1
--
compound: N#Cc1ccc([C@H]2CCc3cncn32)c(F)c1 [Free base]
Moisture gain (water uptake) (%): 0.1

Now examine the next entry.
Param item = Cl.N#Cc1ccc([C@H]2CCc3cncn32)c(F)c1 [HCl salt, reference compound] ; retrieve measured Moisture gain (water uptake).
0.5

----------
Each entry below lists one item and its recorded Moisture gain (water uptake) value.
# procedure.details: Hygroscopicity: sorption/desorption isotherms, VTI 100 humidity microbalance
# Type: physicochemical
# measurement.conditions: 50% r.h., 25° C.
Numbers only; they are read as %.

compound: N#Cc1ccc([C@H]2CCc3cncn32)c(F)c1.O=P(O)(O)O [Phosphate salt]
Moisture gain (water uptake) [%]: 0.1
--
compound: Cl.N#Cc1ccc([C@H]2CCc3cncn32)c(F)c1 [HCl salt, reference compound]
Moisture gain (water uptake) [%]: 0.2
--
compound: N#Cc1ccc([C@H]2CCc3cncn32)c(F)c1.O=[N+]([O-])O [nitrate salt]
Moisture gain (water uptake) [%]: 0.2

Now examine the next entry.
Param item = N#Cc1ccc([C@H]2CCc3cncn32)c(F)c1 [Free base] ; retrieve measured Moisture gain (water uptake).
0.2

----------
Each entry below lists one item and its recorded Moisture gain (water uptake) value.
# procedure.details: Hygroscopicity: sorption/desorption isotherms, VTI 100 humidity microbalance
# Type: physicochemical
# measurement.conditions: 95% r.h., 25° C.
Numbers only; they are read as %.

molecule: N#Cc1ccc([C@H]2CCc3cncn32)c(F)c1.O=P(O)(O)O [Phosphate salt]
value.reported: 0.8
--
molecule: N#Cc1ccc([C@H]2CCc3cncn32)c(F)c1 [Free base]
value.reported: 1.0
--
molecule: Cl.N#Cc1ccc([C@H]2CCc3cncn32)c(F)c1 [HCl salt, reference compound]
value.reported: 23.6

Now examine the next entry.
Param item = N#Cc1ccc([C@H]2CCc3cncn32)c(F)c1.O=[N+]([O-])O [nitrate salt] ; retrieve measured Moisture gain (water uptake).
0.2

----------
# procedure.details: Determination of solubility (excess solids equilibrated over 24 hours at 25° C.)
# Format: physicochemical
# measurement.conditions: simulated gastric fluid, thermodynamic from solid, pH 1, read-out: Solubility profile
parameter.measured: solubility

Param item = N#Cc1ccc([C@H]2CCc3cncn32)c(F)c1 [Free base] ; retrieve measured solubility.
> 50 mg/mL

From: patent US9334276B2
